measured-target: T1, Human PD-1 extracellular domain, hFc tag (human, UniProt Q15116 25-170)
T1 construct: extracellular domain; also called hPro1.ECD.hFc; not shown: human Fc tag at C-terminus
T1 sequence (Q15116 25-170): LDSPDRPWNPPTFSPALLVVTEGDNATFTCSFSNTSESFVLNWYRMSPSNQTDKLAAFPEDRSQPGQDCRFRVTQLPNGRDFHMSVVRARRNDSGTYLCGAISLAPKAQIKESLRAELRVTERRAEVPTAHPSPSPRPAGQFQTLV
test: SPR Biacore 8K; PD-1-hFc captured on anti-human Fc chip, VHH injected; 1:1 fit
value-kind: koff (s⁻¹)

# binder, output-unit, readout-value
rows = [
    ("AP17R1-2H2-Z1-R1-4B2 (VHH, not shown: his- and c-Myc-tag from vector pETbac) VHH: QVQLVESGGGVVQPGGSLRLSCAASDSISSLVNMGWYRQAPGKQRELVALIANYITHYADFVKGRFTISRDNSKNTLYLQMNSLRAEDTAVYYCYARNIIVDYWGQGTLVTVSS", "s⁻¹", 0.00413),
    ("AP17R1-2H2-Z1-R1-27A2 (VHH, not shown: his- and c-Myc-tag from vector pETbac) VHH: QVQLVESGGGVVQPGGSLRLSCAASDSIDSLVNMGWYRQAPGKQRELVALIANYITHYADFVKGRFTISRDNSKNTLYLQMNSLRAEDTAVYYCYARSIIVDYWGQGTLVTVSS", "s⁻¹", 0.00331),
    ("AP17R1-2H2-Z1-R1-14B3 (VHH, not shown: his- and c-Myc-tag from vector pETbac) VHH: QVQLVESGGGVVQPGGSLRLSCAASDSIDSLVNMGWYRQAPGKQRELVALIARYITHYADFVKGRFTISRDNSKNTLYLQMNSLRAEDTAVYYCYARNIIVDYWGQGTLVTVSS", "s⁻¹", 0.00249),
    ("AP17R1-2H2-Z1-R1-14A1 (VHH, not shown: his- and c-Myc-tag from vector pETbac) VHH: QVQLVESGGGVVQPGGSLRLSCAASDSIDSLVNMGWYRQAPGKQRELVALIATYITHYADFVKGRFTISRDNSKNTLYLQMNSLRAEDTAVYYCYARNIIVDYWGQGTLVTVSS", "s⁻¹", 0.00112),
]

Value source: patent US20240301067A1
